Hi there, I'd appreciate the recorded pIC50 for every entry that follows.
- Assay name: Inhibition of HSV-1 DNA polymerase in HSV-1 C42 plaque reduction assay
# pIC50 = -log10(concentration in molar units)

Recorded result, O=C(Oc1ccccc1)P(=O)(O)Oc1ccccc1 [sodium phenyl phenoxycarbonylphosphonate] , pIC50: 4.28

Recorded result, COc1ccc(OP(=O)(O)C(=O)O)cc1 , pIC50: 4.05
